- Test protocol: Primary qHTS for delayed death inhibitors of the malarial parasite plastid, 48 hour incubation
- Experimental setup: P. falciparum luciferase growth in erythrocytes; series mostly up to 28.7 µM
The campaign covered roughly 310,000 compounds. About 18,000 (5.8%) were called active. Not shown: some 22% with an inconclusive outcome. The call rests on the fitted dose curve; in most records, active means well fitted inhibition curve with a large enough effect; inconclusive means small, poorly fitted or top-dose-only effect, or another doubt; inactive means no such curve, though single readings can be large or run the other way. This excerpt belongs to a sample that is enriched for actives.
Return exactly one item of active, inactive

O=C(CCn1nnc2ccccc21)OCC(=O)c1ccc([N+](=O)[O-])cc1 inactive

For this compound, state the assay outcome: O=c1oc2c(CN3CCCCC3)c(O)ccc2c2c1CCCCC2
active

For this compound, state the assay outcome: C=CC[n+]1c(-c2ccc(C)cc2)csc1NNC(=O)Nc1ccccc1
active

For this compound, state the assay outcome: CN(C)c1ccc(/C=N/N(Cc2ccccc2)c2ccccc2)cc1
inactive

For this compound, state the assay outcome: CC(=O)c1c(C)oc2ccc(NS(=O)(=O)c3ccccc3)cc12
inactive

For this compound, state the assay outcome: COc1ccccc1OCCNC(=O)CCNC(=O)c1ccccc1Cl
inactive
